- Test name: NCI Yeast Anticancer Drug Screen. Data for the mec2-1 strain (AID 157)
- Measurement parameters: S. cerevisiae mec2-1 strain, at 50.0 µM, active compounds read high
The panel holds about 79,000 compounds, 15% with a hit somewhere; the sample as a whole holds those more often.
Readout label: growth inhibition (%)
Supply the numeric figure in %, leaving out any unit text.

The cases that follow already have their growth inhibition on record.
Challenge: Consider the molecule shown here: `COc1ccc(N2C(=O)[C@@H](N=[N+]=[N-])[C@@H]2[C@H]2COC(C)(C)O2)cc1` What is its recorded growth inhibition?
Response given: -14.3

Challenge: Consider the molecule shown here: O=C1C(c2ccccc2)C(c2ccccc2)C(c2ccccc2)C1c1ccccc1 (stereo unspecified) What is its recorded growth inhibition?
Response given: 1.05

Challenge: Consider the molecule shown here: CCN(CC)CC(C)(C)C(O)c1ccc(OC)c2ccccc12 (stereo unspecified) What is its recorded growth inhibition?
Response given: 7.3

Challenge: Consider the molecule shown here: `Cc1ccc(C(C)C)c(OCC2=NCCN2C)c1` What is its recorded growth inhibition?
Response given: -3.15

Challenge: Consider the molecule shown here: `O=c1sc2ccccc2n1CCN(CCn1c(=O)sc2ccccc21)c1ccccc1` What is its recorded growth inhibition?
Response given: -7.75

Challenge: Consider the molecule shown here: N#CC(C(=O)/C(=N\Nc1nc(=S)[nH]n1N)C(C#N)c1ccc(Cl)cc1)c1ccc(Cl)cc1 (stereo unspecified) What is its recorded growth inhibition?
Response given: -10

Shift focus to the following entry.
Challenge: Consider the molecule shown here: `C#CC(C)(C)Oc1cc(O)c2c(=O)c3ccccc3n(C)c2c1` What is its recorded growth inhibition?
Response given: -0.35
